- SYSTEM: Follistatin (Homo sapiens)
- METHOD NOTES: follistatin binders on small-molecule microarrays, primary screen, biochemical, small-molecule microarray, 635/667 nm fluorescence (AID 1132)
- CONDITION SET: FST binding, 635 nm fluorescence, higher = more signal
Classify as follows. Reported composite z-score greater than or equal to 0.7: Met. Reported composite z-score below: Not met.

Query :: For this molecule, is measured composite z-score 0.7 or higher? CC(C)C(=O)N[C@H]1CCCN1C(=O)C=Cc1ccccc1
Result :: Not met

Query :: For this molecule, is measured composite z-score 0.7 or higher? CCOC(=O)[C@H](Cc1ccccc1)NC(=O)CCC1CC(OC(=O)NCc2cccc3ccccc23)CC2(CCCC(COC(=O)NCCOc3ccccc3)O2)O1 (some centres not stated)
Result :: Not met

Query :: For this molecule, is measured composite z-score 0.7 or higher? COC(=O)[C@H](C)NC(=O)CCC1CC(OC(=O)NCCc2ccc(F)cc2)CC2(CCCC(COC(=O)NCCc3ccccc3OC)O2)O1 (some centres not stated)
Result :: Met

Query :: For this molecule, is measured composite z-score 0.7 or higher? C[C@@H]1CC[C@H]2C(=O)O[C@@H](COc3ccc(C(C)(C)C)cc3)CN2[C@H]1c1ccc(Br)cc1
Result :: Not met

Query :: For this molecule, is measured composite z-score 0.7 or higher? CCN1C(=O)[C@H]2[C@H]3[C@H](O)[C@H](O)CC(=NO[C@H](C)c4cn([C@H](CO)Cc5ccccc5)nn4)[C@@H]3CC[C@H]2C1=O
Result :: Met

Query :: For this molecule, is measured composite z-score 0.7 or higher? COc1ccc(COC(=O)NN=C2C[C@@H](O)[C@@H](O)[C@@H]3[C@@H]4C(=O)N([C@@H](C)c5ccccc5)C(=O)[C@@H]4CC[C@H]23)cc1
Result :: Not met

Query :: For this molecule, is measured composite z-score 0.7 or higher? C[C@@H](c1ccccc1)N1C(=O)[C@H]2[C@H]3[C@H](O)[C@H](O)CC(=NNC(=O)OCc4ccccc4)[C@@H]3CC[C@H]2C1=O
Result :: Met

Query :: For this molecule, is measured composite z-score 0.7 or higher? CC(=O)OC[C@H]1O[C@H](CC=NO[C@H](C)c2cn([C@@H]3COC[C@H]3O)nn2)C=C[C@@H]1OC(C)=O
Result :: Not met

Query :: For this molecule, is measured composite z-score 0.7 or higher? CCCNC(=O)OC[C@H]1O[C@H](CCON=C2C[C@@H](O)[C@@H](O)[C@@H]3[C@@H]4C(=O)N(CC)C(=O)[C@@H]4CC[C@@H]23)C=C[C@@H]1Oc1ccc(OC)cc1
Result :: Met

Query :: For this molecule, is measured composite z-score 0.7 or higher? C[C@@H]1CC[C@H]2C(=O)O[C@@H](CN=[N+]=[N-])CN2[C@H]1c1ccc(Br)cc1
Result :: Not met

Query :: For this molecule, is measured composite z-score 0.7 or higher? CCOC(=O)CCN1C(=O)[C@H]2[C@H]3[C@H](O)[C@H](O)CC(=NOCC(C)C)[C@@H]3CC[C@H]2C1=O
Result :: Met

Query :: For this molecule, is measured composite z-score 0.7 or higher? COc1ccc(COC(=O)NN=C2C[C@@H](O)[C@@H](O)[C@@H]3[C@@H]4C(=O)N(Cc5ccc6c(c5)OCO6)C(=O)[C@@H]4CC[C@H]23)cc1
Result :: Not met

Query :: For this molecule, is measured composite z-score 0.7 or higher? CO[C@@H]1COC(=O)CC=C[C@H](C)[C@H](OC)COC(=O)[C@@H]2CCCN2C(=O)CC=C[C@H]1C
Result :: Met

Query :: For this molecule, is measured composite z-score 0.7 or higher? O=C(NN=C1C[C@@H](O)[C@@H](O)[C@@H]2[C@@H]3C(=O)N(c4ccc(F)cc4F)C(=O)[C@@H]3CC[C@H]12)OCc1ccccc1
Result :: Not met

Query :: For this molecule, is measured composite z-score 0.7 or higher? CC(CCN1CCc2nc(-c3ccccc3)c(-c3ccccc3)cc2C1)=NO[C@H](C)c1cn([C@H](CO)Cc2ccccc2)nn1
Result :: Not met

Query :: For this molecule, is measured composite z-score 0.7 or higher? COC(=O)[C@@H]1CC[C@H](C)[C@@H](c2ccc(Br)cc2)N1C[C@@H](O)CN=[N+]=[N-]
Result :: Not met

Query :: For this molecule, is measured composite z-score 0.7 or higher? CCOC(=O)[C@H](CC(C)C)NC(=O)CCC1CC(OC(=O)NCCc2ccc(F)cc2)CC2(CCCC(COC(=O)NCCCN3CCCC3=O)O2)O1 (some centres not stated)
Result :: Met
